test system: UACC-62 melanoma; test: NCI tumour cell line growth inhibition, 48 h
For each of the molecules below, state its TGI.

Examples with their reported TGI follow.
molecule	TGI
C=C1C(=O)O[C@H]2[C@H]1CC/C(Cn1cc(Cc3c[nH]c4ccccc34)nn1)=C\CC[C@@]1(C)O[C@@H]21	3.13 µM
Clc1ccc2nc3n[nH]c(Cl)c3nc2c1	> 100 µM
C=C1C(=O)[C@]23C[C@H]1C[C@@H](O)[C@H]2[C@]1(COC3=O)[C@@H](OC(C)=O)CC[C@@](C)(COC(C)=O)[C@H]1C=O	> 50 µM

Would you mind giving TGI for every molecule in the list below?
1. CC(N)Cc1ccc(Cl)cc1 (configuration not stated)
2. Cc1nc(N)sc1C(=O)Nc1ncn[nH]1

["> 100 µM", "> 100 µM"]
